Listing of recorded Ratio IC50 to 056-53.H4E IC50 by entry.
Biological target: T1, recombinant human IL-23R/Fc chimera (R&D Systems) (human, UniProt Q5VWK5 24-355)
T1 construct: Bought; also called rhIL23RFc
T1 sequence (looked up): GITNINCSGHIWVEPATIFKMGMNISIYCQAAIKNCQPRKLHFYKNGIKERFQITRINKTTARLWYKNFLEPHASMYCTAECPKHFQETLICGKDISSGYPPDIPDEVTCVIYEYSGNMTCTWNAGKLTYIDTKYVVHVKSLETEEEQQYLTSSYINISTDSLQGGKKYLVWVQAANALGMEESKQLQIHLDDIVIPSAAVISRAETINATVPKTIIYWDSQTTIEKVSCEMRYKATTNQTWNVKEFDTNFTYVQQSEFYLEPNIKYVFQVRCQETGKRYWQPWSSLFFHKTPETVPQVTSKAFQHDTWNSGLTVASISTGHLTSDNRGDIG
Experiment: competition ELISA vs IL-23
Reply briefly: the number, and no unit.

# annotated cases, reported Ratio IC50 to 056-53.H4E IC50 shown
Binder	Number
101-54-4B10 ATRIMER complex (designed binder) EPPTQKPKKIVNAKKDVVNTKMFEELKSRLDTLAQEVALLKEQQALQTVCLKGTKVHMKCFLAFTQTKTFHEASEDCISRGGTLSTPQTGSENDALYEYLRQSVGNEAEIWLGLNGSALTNTWVDMTGARIAYKNWERPPLYQPGGGFGYFGENCAVLSGAANGKWFDKRCRDQLPYICQFGIV	1.4
105-08-2C9 ATRIMER complex (designed binder) EPPTQKPKKIVNAKKDVVNTKMFEELKSRLDTLAQEVALLKEQQALQTVCLKGTKVHMKCFLAFTQTKTFHEASEDCISRGGTLSTPQTGSENDALYEYLRQSVGNEAEIWLGLNGSTLTNTWVDMTGARIAYKNWETEITAQPDGGWGYFGENCAVLSGAANGKWFDKRCRDQLPYICQFGIV	5.3

Inquiry: // lookup Ratio IC50 to 056-53.H4E IC50 for 101-51-1A3 ATRIMER complex (designed binder, Forms a homotrimer through the tetranectin coiled coil; one protomer is given., not shown: C-terminal tag: His/Myc (pANA4) or HA-StrepII (pANA10)) EPPTQKPKKIVNAKKDVVNTKMFEELKSRLDTLAQEVALLKEQQALQTVCLKGTKVHMKCFLAFTQTKTFHEASEDCISRGGTLSTPQTGSENDALYEYLRQSVGNEAEIWLGLNGSALTNTWVDMTGARIAYKNWEHQPVYQPGGGWGVFGENCAVLSGAANGKWFDKRCRDQLPYICQFGIV
Reply text: 1.6

Inquiry: // lookup Ratio IC50 to 056-53.H4E IC50 for 105-08-2H4 ATRIMER complex (designed binder) EPPTQKPKKIVNAKKDVVNTKMFEELKSRLDTLAQEVALLKEQQALQTVCLKGTKVHMKCFLAFTQTKTFHEASEDCISRGGTLSTPQTGSENDALYEYLRQSVGNEAEIWLGLNGSVRTDTWVDMTGARIAYKNWETEITAQPDGGFGYFGENCAVLSGAANGKWFDKRCRDQLPYICQFGIV
Reply text: 5
